Every entry's value here was drawn from patent US7705050B2.

- System: human PMNs stimulated by IL-8
- METHOD: Chemotaxis of human PMNs stimulated by IL-8 (48-well microchamber)
- Assay type: cell-based
- DETAILS: Table 2; compounds 10^−8 M; IL-8 10 ng/mL
Reported % inhibition of chemotaxis of human PMNs stimulated by IL-8 (10 ng/mL) values follow for various compounds
PARAMETER_MEASURED: % inhibition of chemotaxis of human PMNs stimulated by IL-8 (10 ng/mL) (%)

INSERT INTO assay_data (compound, experimental_value) VALUES
  ('CC(C)Cc1ccc([C@@H](C)C(=O)NCCOCCO)cc1 [Compound 8]', 40),
  ('CC(C)Cc1ccc([C@@H](C)C(=O)Nc2ccccc2)cc1 [Compound 9]', 9),
  ('CNC(=O)[C@H](C)c1ccc(CC(C)C)cc1 [Compound 2]', 25),
  ('CC(C)Cc1ccc([C@@H](C)C(N)=O)cc1 [Compound 1, (R)-2-(4-isobutyl-phenyl)-propionamide, reference compound]', 57),
  ('CC(C)Cc1ccc([C@@H](C)C(=O)N[C@@H](CO)C(=O)O)cc1 [Compound 7]', 12),
  ('CC(C)Cc1ccc([C@@H](C)C(=O)NCCO)cc1 [Compound 3]', 20),
  ('CC(C)Cc1ccc([C@@H](C)C(=O)N[C@H](C)C(=O)O)cc1 [Compound 6]', '−17'),
  ('CC(C)Cc1ccc([C@@H](C)C(=O)Nc2cccnc2)cc1 [Compound 11]', 11),
  ('CC(C)Cc1ccc([C@@H](C)C(=O)N[C@@H](C)C(=O)O)cc1 [Compound 5]', 65),
  ('CC(C)Cc1ccc([C@@H](C)C(=O)Nc2ccncc2)cc1 [Compound 12]', 61),
  ('CC(C)Cc1ccc([C@@H](C)C(=O)NCC(=O)O)cc1 [Compound 4]', 45),
  ('CC(C)Cc1ccc([C@@H](C)C(=O)Nc2ccccn2)cc1 [Compound 10]', 36);
